# TARGET SYSTEM: hMAO A (Homo sapiens, UniProt P21397)
# Sequence (P21397 1-527): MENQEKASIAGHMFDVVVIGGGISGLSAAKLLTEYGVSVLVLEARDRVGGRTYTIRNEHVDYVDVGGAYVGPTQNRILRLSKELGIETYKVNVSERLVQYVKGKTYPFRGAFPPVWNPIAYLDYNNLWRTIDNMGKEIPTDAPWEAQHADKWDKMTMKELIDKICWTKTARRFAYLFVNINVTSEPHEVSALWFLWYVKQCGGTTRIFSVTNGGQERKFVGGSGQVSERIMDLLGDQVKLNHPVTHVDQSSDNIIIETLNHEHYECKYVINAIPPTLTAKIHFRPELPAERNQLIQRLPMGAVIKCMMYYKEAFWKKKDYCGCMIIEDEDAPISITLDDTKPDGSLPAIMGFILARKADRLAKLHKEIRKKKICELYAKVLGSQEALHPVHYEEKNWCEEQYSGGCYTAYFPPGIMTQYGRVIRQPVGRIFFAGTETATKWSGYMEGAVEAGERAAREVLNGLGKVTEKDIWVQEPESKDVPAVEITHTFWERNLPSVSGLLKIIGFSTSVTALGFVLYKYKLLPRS
# EXPERIMENT NOTES: MAO A inhibition, fluorometric method
# Format: biochemical
# PROTOCOL CONDITIONS: read-out: MAO A % inhibition
OUTCOME MEASURE: inhibition at 100 µM (%)
Your answer is read as %, so omit the unit and give the number.

# SMILES REPRESENTATION, MEASURED NUMBER
measured = [
    ("C#CCN1CCN(CC(=O)Nc2ccc(C=CC(=O)c3ccc(OC)c(OC)c3)cc2)CC1", 44.2),
    ("COc1ccc(C(=O)C=Cc2ccc(NC(=O)CN3CCN(CCCN(C)C)CC3)cc2)cc1OC", 41.3),
    ("COc1ccc(C(=O)C=Cc2ccc(NC(=O)CN3CCN(C(C)C)CC3)cc2)cc1OC", 39),
    ("COc1ccc(C(=O)C=Cc2ccc(NC(=O)CN3CCN(C)CC3)cc2)cc1OC", 38.7),
]

Task item: What reported inhibition at 100 µM corresponds to COc1ccc(C(=O)C=Cc2ccc(NC(=O)CN3CCN(C4CCCC4)CC3)cc2)cc1OC on hMAO A (Homo sapiens, UniProt P21397)?
Reply: 30.4
